# Tested on: HCV replicon 1AY93H
# PROCEDURE DETAILS: Cell-based HCV Replicon Assay A, replicon 1AY93H
# CONDITION NOTES: read-out: 1A Y93H IC50, replicon 1AY93H
# Protocol: To measure cell-based anti-HCV activity of compounds of the present invention, two complimentary assays were employed using various replicons. […] The replicon RNA level was measured using real time PCR (TaqMan® EZ RT-PCR, Applied Biosystems 403028) with the following primers and probes: […] The amount of HCV replicon RNA per cell is quantified using a linear regression curve for a known nanogram (ng) amount of HCV replicon total RNA. […]
pIC50: −log10 of the molar value.
MEASURED ENDPOINT: pIC50

MOLECULE	TGT	MEASURED ENDPOINT	NUMERIC READOUT
CCc1ncc(C2Oc3cc(-c4cnc([C@@H]5CCCN5C(=O)[C@@H](NC(=O)OC)C(C)C)[nH]4)cc(F)c3-c3cc4cc(-c5cnc([C@@H]6CCCN6C(=O)C(NC(=O)OC)C6CCOC(C)(C)C6)[nH]5)ccc4n32)s1 (single isomer, unassigned) [Compound 39]	HCV replicon 1AY93H	pIC50	10.95
COC(=O)N[C@H](C(=O)N1CCC[C@H]1c1ncc(-c2cc(F)c3c(c2)OC(c2cnc(-c4ccc(F)cc4F)s2)n2c-3cc3cc(-c4cnc([C@@H]5CCCN5C(=O)[C@@H](NC(=O)OC)C(C)C)[nH]4)ccc32)[nH]1)C(C)C (single isomer, unassigned) [Compound 99]	HCV replicon 1AY93H	pIC50	9.59
CCc1ncc(C2Oc3cc(-c4cnc([C@@H]5CCCN5C(=O)[C@@H](NC(=O)OC)C(C)C)[nH]4)cc(F)c3-c3cc4cc(-c5cnc([C@@H]6C[C@H]7C[C@H]7N6C(=O)C(NC(=O)OC)C6CCOC(C)(C)C6)[nH]5)ccc4n32)s1 (single isomer, unassigned) [Compound 93]	HCV replicon 1AY93H	pIC50	10.37
COC(=O)NC(C(=O)N1[C@@H]2C[C@@H]2C[C@H]1c1ncc(-c2ccc3c(c2)cc2n3C(c3cnc(C4CCCC4)s3)Oc3cc(-c4cnc([C@@H]5CCCN5C(=O)[C@@H](NC(=O)OC)C(C)C)[nH]4)cc(F)c3-2)[nH]1)C1CCOC(C)(C)C1 (single isomer, unassigned) [Compound 322]	HCV replicon 1AY93H	pIC50	10.29
CCCc1ncc(C2Oc3cc(-c4cnc([C@@H]5CCCN5C(=O)[C@@H](NC(=O)OC)C(C)C)[nH]4)cc(F)c3-c3cc4cc(-c5cnc([C@@H]6CCCN6C(=O)C(NC(=O)OC)C6CCOC(C)(C)C6)[nH]5)ccc4n32)s1 (single isomer, unassigned) [Compound 60]	HCV replicon 1AY93H	pIC50	9.40
COC(=O)N[C@H](C(=O)N1CCC[C@H]1c1ncc(-c2cc(F)c3c(c2)OC(c2cnc(C4(C)CCCC4)s2)n2c-3cc3cc(-c4cnc([C@@H]5C[C@H]6C[C@H]6N5C(=O)[C@@H](NC(=O)OC)C(C)C)[nH]4)ccc32)[nH]1)C(C)C (single isomer, unassigned) [Compound 454]	HCV replicon 1AY93H	pIC50	11.70
COC(=O)N[C@H](C(=O)N1CCC[C@H]1c1ncc(-c2cc(F)c3c(c2)OC(c2cnc(C(C)(C)C)s2)n2c-3cc3cc(-c4cnc([C@@H]5CCCN5C(=O)[C@@H](NC(=O)OC)C(C)C)[nH]4)ccc32)[nH]1)C(C)C (single isomer, unassigned) [Compound 303]	HCV replicon 1AY93H	pIC50	10.32
